test: Transmission electron microscopy of N-X-Phe-DAP/siRNA nanoparticles; format: physicochemical; details: TEM images, FIG. 4
attribute measured: morphology of siRNA nanoparticles/aggregates

                           molecular_string       data_value
0  NCCCNC(=O)[C@H](Cc1ccccc1)NC(=O)OCc1ccccc1  smaller spheres
1  NCCCNC(=O)[C@H](Cc1ccccc1)NC(=O)C1CCCCC1  smaller spheres

---

System: A549 cells
Assay: MTT cytotoxicity assay
Type: cell-based, human
Conditions: normalized to naïve control, ± SEM
Procedure: A549 cells were dosed with 100 µM of these derivatives for 4 h (FIG. 7A), 24 h (FIG. 7B), and 48 h (FIG. 7C). FIG. 7 reports cell viability as percent viability of A549 cells normalized to naïve control. […] Average values are reported with calculated standard error of the mean (SEM). […] MTT Cytotoxicity Assay: All cytotoxicity assays were performed in triplicate. […] Absorbance measurements (550 nm) were taken on a Tecan Infinite M1000 Pro plate reader. […]
Listing of recorded Cell Viability (%) Media Change After 4 h Followed by 48 h Incubation by entry.
Write the value in % as a bare number.

GET /value?item= NCCCNC(=O)[C@H](Cc1cccc(F)c1)NC(=O)OCC1c2ccccc2-c2ccccc21 [Fmoc-3F-Phe-DAP] &field=Cell Viability (%) Media Change After 4 h Followed by 48 h Incubation returns 71.1

Input NCCCNC(=O)[C@H](Cc1ccccc1)NC(=O)Cc1ccc2ccccc2c1 [2-Nap-Phe-DAP] . Output Cell Viability (%) Media Change After 4 h Followed by 48 h Incubation: 60.7

Cell Viability (%) Media Change After 4 h Followed by 48 h Incubation in this record for NCCCNC(=O)[C@H](Cc1ccccc1)NC(=O)CC1c2ccccc2-c2ccccc21 [Fm-Phe-DAP] : 72.6

Data point: NCCCNC(=O)[C@H](Cc1c(F)c(F)c(F)c(F)c1F)NC(=O)OCC1c2ccccc2-c2ccccc21 [Fmoc-F5-Phe-DAP] ; Cell Viability (%) Media Change After 4 h Followed by 48 h Incubation = 54.2

GET /value?item= NCCCNC(=O)[C@H](Cc1ccccc1)NC(=O)OCc1ccccc1 [Cbz-Phe-DAP] &field=Cell Viability (%) Media Change After 4 h Followed by 48 h Incubation returns 50.2

Summary for this compound, NCCCNC(=O)[C@H](Cc1ccccc1)NC(=O)OCC1c2ccccc2-c2ccccc21 [Fmoc-Phe-DAP] : Cell Viability (%) Media Change After 4 h Followed by 48 h Incubation is 76.1

The recorded Cell Viability (%) Media Change After 4 h Followed by 48 h Incubation for NCCCNC(=O)[C@H](Cc1ccccc1)NC(=O)CCCc1ccc2ccc3cccc4ccc1c2c34 [Pyr-Phe-DAP] is 22.3

For this compound ( NCCCNC(=O)[C@H](Cc1ccccc1)NC(=O)Cc1cccc2ccccc12 [1-Nap-Phe-DAP] ), measured Cell Viability (%) Media Change After 4 h Followed by 48 h Incubation is 56.5

---

test system: A549 cells; test: MTT cytotoxicity assay; type: cell-based, human; details: normalized to naïve control, ± SEM
attribute measured: Cell Viability (%) 4 h Dosing
# value in %; strip the unit string

                           molecular_string  data_value
0  NCCCNC(=O)[C@H](Cc1ccccc1)NC(=O)C1CCCCC1        58.3

Input NCCCNC(=O)[C@H](Cc1ccccc1)NC(=O)OCC1c2ccccc2-c2ccccc21 . Output Cell Viability (%) 4 h Dosing: 76.3

GET /value?item= NCCCNC(=O)[C@H](Cc1ccccc1)NC(=O)CCCc1ccc2ccc3cccc4ccc1c2c34 &field=Cell Viability (%) 4 h Dosing returns 17.2

compound NCCCNC(=O)[C@H](Cc1ccccc1)NC(=O)CC1c2ccccc2-c2ccccc21 , Cell Viability (%) 4 h Dosing observed: 60.7

Summary for this compound, CCCCCCC(=O)N[C@@H](Cc1ccccc1)C(=O)NCCCN : Cell Viability (%) 4 h Dosing is 38.9

The reported Cell Viability (%) 4 h Dosing of the compound NCCCNC(=O)[C@H](Cc1ccccc1)NC(=O)OCc1ccccc1 was 60.8

Values compiled from patent US20260167972A1.
